Entry source: the NIST ThermoML archive (doi:10.1016/j.jct.2009.11.004)

test: refractive index (Na D-line) (dimensionless); conditions: 293.15 K; 101.33 kPa; Liquid; Standard Abbe refractometry
Answer each item with its documented refractive index.
Give bare numbers.

Solved entries (count: 3):
[
  {
    "COMPOUND": "CCCCCCCC[n+]1ccccc1.O=S(=O)([N-]S(=O)(=O)C(F)(F)F)C(F)(F)F [1-octylpyridinium bis((trifluoromethyl)sulfonyl)amide]",
    "DATA VALUE": 1.4487
  },
  {
    "COMPOUND": "CCCCCCCCCCCC[n+]1ccccc1.O=S(=O)([N-]S(=O)(=O)C(F)(F)F)C(F)(F)F [1-dodecylpyridinium bis(trifluoromethylsulfonyl)imide]",
    "DATA VALUE": 1.45131
  },
  {
    "COMPOUND": "CCCCCCCCCC[n+]1ccccc1.O=S(=O)([N-]S(=O)(=O)C(F)(F)F)C(F)(F)F [1-decylpyridinium bis(trifluoromethylsulfonyl)imide]",
    "DATA VALUE": 1.45007
  }
]

Attention now turns to another entry.
Prompt: Specify refractive index for CCCC[n+]1ccccc1.O=S(=O)([N-]S(=O)(=O)C(F)(F)F)C(F)(F)F [1-butylpyridinium bis[(trifluoromethyl)sulfonyl]imide] and stop.
Response: 1.44537

----------
details: 328.15 K; 101.33 kPa; Liquid; Concentric cylinders viscometry
ASSAY ENDPOINT: viscosity (mPa·s)
One number for each entry, in mPa·s.

Solved entries (count: 3):
[
  {
    "COMPOUND": "CCCCCCCC[n+]1ccccc1.O=S(=O)([N-]S(=O)(=O)C(F)(F)F)C(F)(F)F [1-octylpyridinium bis((trifluoromethyl)sulfonyl)amide]",
    "DATA VALUE": 31.7
  },
  {
    "COMPOUND": "CCCCCCCCCCCC[n+]1ccccc1.O=S(=O)([N-]S(=O)(=O)C(F)(F)F)C(F)(F)F [1-dodecylpyridinium bis(trifluoromethylsulfonyl)imide]",
    "DATA VALUE": 48.25
  },
  {
    "COMPOUND": "CCCC[n+]1ccccc1.O=S(=O)([N-]S(=O)(=O)C(F)(F)F)C(F)(F)F [1-butylpyridinium bis[(trifluoromethyl)sulfonyl]imide]",
    "DATA VALUE": 20.08
  }
]

Attention now turns to another entry.
Prompt: Specify viscosity for CCCCCCCCCC[n+]1ccccc1.O=S(=O)([N-]S(=O)(=O)C(F)(F)F)C(F)(F)F [1-decylpyridinium bis(trifluoromethylsulfonyl)imide] and stop.
Response: 39.29

----------
details: 333.15 K; 101.33 kPa; Liquid; Concentric cylinders viscometry
ASSAY ENDPOINT: viscosity (mPa·s)
Numbers only, in mPa·s.

Solved entries (count: 3):
[
  {
    "COMPOUND": "CCCC[n+]1ccccc1.O=S(=O)([N-]S(=O)(=O)C(F)(F)F)C(F)(F)F [1-butylpyridinium bis[(trifluoromethyl)sulfonyl]imide]",
    "viscosity, mPa·s": 17.4
  },
  {
    "COMPOUND": "CCCCCCCCCC[n+]1ccccc1.O=S(=O)([N-]S(=O)(=O)C(F)(F)F)C(F)(F)F [1-decylpyridinium bis(trifluoromethylsulfonyl)imide]",
    "viscosity, mPa·s": 32.91
  },
  {
    "COMPOUND": "CCCCCCCC[n+]1ccccc1.O=S(=O)([N-]S(=O)(=O)C(F)(F)F)C(F)(F)F [1-octylpyridinium bis((trifluoromethyl)sulfonyl)amide]",
    "viscosity, mPa·s": 26.8
  }
]

Attention now turns to another entry.
Prompt: Specify viscosity for CCCCCCCCCCCC[n+]1ccccc1.O=S(=O)([N-]S(=O)(=O)C(F)(F)F)C(F)(F)F [1-dodecylpyridinium bis(trifluoromethylsulfonyl)imide] and stop.
Response: 40.02
